As shown below, each of these variants has a reported protein stability index value.
B1: NET1 (parent)
chain: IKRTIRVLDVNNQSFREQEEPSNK

variants of: B1; assay: protein stability index of a GFP-peptide fusion (GPS, HEK-293T) (PSI 1-6); higher = more stable; conditions: c terminus: a fixed tail appended;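 further: lentivirally expressed fusions sorted by FACS into six bins by GFP to DsRed ratio, PSI derived from sequencing read proportions per bin multiplied by bin number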

sequence.change	protein stability index
Q13I	2.99
V10L	3.85
Q18L	3.06
S22E	3.42
I5L	2.94
Q13A	4.18
N23T	3.73
R6G	4.51
Q13G	3.8
F15Y	3.79
R16A	4
T4S	4.09
R3D	4.81
V10T	4.23
E19W	1.75
V7T	4.21
Q13E	4.26
R16E	3.94
E19G	4.21
R16S	4.06
S14K	3.24
R16W	2.07
